Reference source: patent US5466671A

- Test system: Escherichia coli (ATCC11775)
- assayInfo: Inhibition zone assay (agar plate)
- Assay type: cell-based
- particulars: agar plate, 50 nanomoles/well, 3 mm wells
Residues, ends and D or L forms follow the SMILES beside them.
endpointLabel: inhibition zone diameter (number of plus signs)

# compound, tgt, reported
measured = [
    ("CC[C@H](C)[C@H](NC(=O)[C@@H]1CCCN1C(=O)[C@H](C)NC(=O)[C@@H]1CCCN1C(=O)[C@H](CCCNC(=N)N)NC(=O)[C@@H]1CCCN1C(=O)[C@H](CCCCN)NC(=O)[C@@H](N)CC(N)=O)C(=O)N[C@@H](CCCCN)C(=O)N1CCC[C@H]1C(=O)N[C@@H](CCCNC(=N)N)C(=O)N1CCC[C@H]1C(=O)N1CCC[C@H]1C(=O)N[C@@H](Cc1c[nH]cn1)C(=O)N1CCC[C@H]1C(=O)N[C@@H](CCCNC(=N)N)C(=O)N[C@@H](CC(C)C)C(=O)O [Cd 2-] (H-NKPRPAPIKPRPPHPRL-OH)", "Escherichia coli (ATCC11775)", "+++ ((+++) 10-14 mm)"),
    ("CC(C)C[C@H](NC(=O)[C@H](CCCNC(=N)N)NC(=O)[C@@H]1CCCN1C(=O)[C@H](Cc1c[nH]cn1)NC(=O)[C@@H]1CCCN1C(=O)[C@@H]1CCCN1C(=O)[C@H](CCCNC(=N)N)NC(=O)[C@@H]1CCCN1C(=O)[C@H](C)NC(=O)[C@@H]1CCCN1C(=O)[C@@H](NC(=O)[C@H](Cc1ccc(O)cc1)NC(=O)[C@@H](NC(=O)[C@@H]1CCCN1C(=O)[C@H](CCCNC(=N)N)NC(=O)[C@@H](N)CC(N)=O)[C@@H](C)O)C(C)C)C(=O)O [Ck A] (H-NRPTYVPAPRPPHPRL-OH)", "Escherichia coli (ATCC11775)", "+++ ((+++) 10-14 mm)"),
]
